- assay_target: p300 HAT domain (residues 1287-1666) (Homo sapiens (Human))
- Sequence (Q09472 1287-1666): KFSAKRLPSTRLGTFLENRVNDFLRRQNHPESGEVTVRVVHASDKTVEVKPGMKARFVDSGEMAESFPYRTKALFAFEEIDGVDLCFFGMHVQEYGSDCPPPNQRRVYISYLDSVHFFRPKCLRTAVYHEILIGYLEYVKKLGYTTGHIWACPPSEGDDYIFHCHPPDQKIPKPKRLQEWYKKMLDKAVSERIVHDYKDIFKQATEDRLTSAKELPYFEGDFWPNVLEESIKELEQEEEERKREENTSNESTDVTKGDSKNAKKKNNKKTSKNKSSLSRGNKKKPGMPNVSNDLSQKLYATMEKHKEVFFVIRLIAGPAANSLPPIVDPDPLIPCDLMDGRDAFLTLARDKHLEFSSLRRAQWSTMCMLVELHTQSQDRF
- procedure_details: p300 HAT SPA assay (scintillation proximity assay, acetylation of biotinylated H3(1-21) peptide)
- Format: biochemical
- condition_notes: p300 HAT domain; average of at least 2 replicate titrations; read-out: P300 HAT SPA IC50
IC50 by entry:
Value expressed in nM; do not type the unit.

Below: 2 compounds and their reported IC50.
{"columns": ["compound", "recorded_number"],
 "data": [
  ["O=C(c1c[nH]c2ccccc12)C(NCCc1ccc(Cl)cc1)c1ccccc1 (single isomer, unassigned) [5 Isomer 2]", 867],
  ["COc1ccccc1CCNC(C(=O)c1c[nH]c2ccccc12)c1ccccc1 (single isomer, unassigned) [6 Isomer 2]", 1830]
]}

Alright, here's another compound for you.
IN: For the compound shown here, Cc1nc(C(=O)C(NCCc2ccc(C(N)=O)cc2)c2ccccc2)c2ccc(-c3cnn(C)c3)cn12 (single isomer, unassigned) [184 Isomer 2] , give the reported IC50.
OUT: 522
